system: PCA reaction induced by reaginic (IgE-like) antibodies to egg albumin; assay: inhibition of the passive cutaneous anaphylactic (PCA) reaction in rats induced by reaginic antibodies to egg albumin; format: in vivo, rat; settings: 3 mg/kg i.p. 20 min. before antigen (ovalbumin 5 mg/animal i.v.)
% Inhibition of PCA, i.p. of 60% or higher: true. Under 60%: false.

Query block: Form field: % Inhibition of PCA, i.p. at least 60%? Entry: CCNc1ncnc2c1ncn2CCCN1CCN(c2ccccc2)CC1 [Ex. 1 (d)]
Result block: false

Query block: Form field: % Inhibition of PCA, i.p. at least 60%? Entry: CCCCNc1ncnc2c1ncn2CCCN1CCN(c2ccccc2)CC1 [Ex. 1 (ab)]
Result block: true

Query block: Form field: % Inhibition of PCA, i.p. at least 60%? Entry: CNc1ncnc2c1ncn2CCCN1CCN(c2ccc(F)cc2)CC1 [Ex. 1 (q)]
Result block: false

Query block: Form field: % Inhibition of PCA, i.p. at least 60%? Entry: CNc1ncnc2c1ncn2CCCN1CCN(c2ccc(C)cc2)CC1 [Ex. 1 (y)]
Result block: false
